Values were extracted from PubChem BioAssay (NCI).

Listing of recorded TGI by entry.
test system: SNB-75 CNS; assay: NCI tumour cell line growth inhibition, 48 h
Where a SMILES comes first, the peptide text is derived from it. The star is where a group is joined. Boc = CC(C)(C)OC(=O)*

Asked: So what's the measured TGI for this one? CC1=NN(c2cccc(Cl)c2)C2(SCC(=O)N2c2nc3ccccc3s2)/C1=C\c1ccccc1 (stereo not drawn)
Given back: > 100 µM

Asked: So what's the measured TGI for this one? "CC1=CC(=O)C(=C(C)C)CC1"
Given back: > 100 µM

Asked: So what's the measured TGI for this one? CC(NC(=O)OC(C)(C)C)C(=O)NC(Cc1ccccc1)C(=O)NCC(=O)O (stereo not drawn) (Boc-Ala-Phe-Gly-OH; configuration not given here)
Given back: > 100 µM

Asked: So what's the measured TGI for this one? Nc1nc(=S)c2c(ncn2CC(O)CO)[nH]1 (stereo not drawn)
Given back: > 100 µM

Asked: So what's the measured TGI for this one? "N#C/C(=C/c1ccco1)C(=O)c1ccccc1"
Given back: > 100 µM

Asked: So what's the measured TGI for this one? "Cc1cc2cc3c(Cl)c(CCCl)c(C)nc3cc2c(Cl)c1CCCl"
Given back: > 100 µM

Asked: So what's the measured TGI for this one? CCCCCC(/C=C/C1CCC(=O)C1)OCOCCOC (stereo not drawn)
Given back: 57.8 µM

Asked: So what's the measured TGI for this one? CCCCCCCCCCCc1noc2c1C(=O)C(O)CC2 (stereo not drawn)
Given back: 84.5 µM

----------
system: UO-31 renal; assay: NCI tumour cell line growth inhibition, 48 h
Listing of recorded TGI by entry.

Asked: So what's the measured TGI for this one? "O=C(O[C@H]1CN[C@H](C#Cc2cc3ncnc(Nc4ccc5c(cnn5Cc5ccccc5)c4)c3s2)C1)N1CCOCC1"
Given back: 13.3 µM

Asked: So what's the measured TGI for this one? "S=C(NC/C(Br)=C/Br)Nc1cccc2ccccc12"
Given back: 55.2 µM

Asked: So what's the measured TGI for this one? "O=C(Nc1ccccc1Cl)c1cc(S(=O)(=O)Nc2n[nH]c(=O)n2-c2ccccc2)c(S)cc1Cl"
Given back: > 100 µM

----------
test system: U251 CNS
Bench note: report the call from Yes = active, No = inactive

> print(dat)
                                   molecule  label
1  COc1ccc2c(c1)OCC1c3cc(O)ccc3OC21 (stereo unspecified)     No
2  C/C=C(\C)C(=O)O[C@H]1C=CC(=O)O[C@H]1CC[C@H](O)[C@H](C)O     No
3    Cc1ccc(-c2cc3c(NC(=O)C4CC4)ncnc3o2)cc1     No

Asked: Hello, I am checking results. What call was entered for "CCN(CC)CCOc1nc2c3ccc(Cl)cc3nn2c2ccccc12" ?
Given back: No

Asked: Hello, I am checking results. What call was entered for "CS(=O)(=O)Nc1ccc(Nc2c3ccccc3nc3cc(N)ccc23)cc1" ?
Given back: Yes

Asked: Hello, I am checking results. What call was entered for "O=C(Nc1ccc(Cl)cc1)Nc1ccc(Oc2nncc3ccccc23)cc1" ?
Given back: No

----------
test system: BT-549 breast; assay: NCI tumour cell line growth inhibition, 48 h
VALUE_KIND: TGI

> print(dat)
                                   molecule  meas.value
1  Cc1cc(C)c(C2CC(O)C(CO)O2)cc1C (stereo unspecified)    > 100 µM
2  CCOC(=O)C1=C(N)CCC1C (stereo unspecified)    > 100 µM
3  COP1(=O)OCc2cnccc2O1 (stereo unspecified)    > 100 µM
4  O=C(O[C@H]1CN[C@H](C#Cc2cc3ncnc(Nc4ccc5c(cnn5Cc5ccccc5)c4)c3s2)C1)N1CCOCC1     9.29 µM

Asked: Which measured TGI belongs to "O=C(Nc1ccccc1Cl)c1cc(S(=O)(=O)Nc2n[nH]c(=O)n2-c2ccccc2)c(S)cc1Cl" , tested on BT-549 breast?
Given back: > 100 µM

Asked: Which measured TGI belongs to Cc1cnc(Cl)nc1C(C#N)c1nc2ccccc2s1 (stereo unspecified) , tested on BT-549 breast?
Given back: 51.2 µM
